test system: OVCAR-5 ovarian; experiment: NCI-60 one-dose screen, 48 h (100 = growth as untreated, 0 = no growth, -100 = all killed); details: 10 µM unless noted
About 83,000 compounds went through this panel and 20% of them were active in at least one assay; those are over-represented in the sample as a whole.
Classification field: 1.0 = growth at or over 90%; 0.0 = growth under 90%.

> print(dat)
                                   molecule  assigned.class
1     O=c1c2ccccc2sc2c(N3CCCC3)nc3ccccc3c12             1.0
2  Nc1nccc2c1ccn2-c1ccc(NC(=O)c2ccc(N3CCOCC3)c(C(F)(F)F)c2)cc1             0.0
3  Fc1ccc(Nc2ncnc3ccc(-c4cn[nH]c4)cc23)cc1Cl             0.0
4     CCC(C)Nc1ccc(N)cc1 (stereo not given)             0.0
5  CC1(C)N=C(N)N=C(N)N1c1ccc(OCC(=O)Nc2ccccc2)c(Cl)c1             0.0
6  C[C@]12O[C@H]1[C@H](O)c1c(cc(O)c3c1C(=O)c1cccc(O)c1-3)C2=O             1.0
7       O=C(C[n+]1ccccc1Cl)c1ccc2c(c1)CCCC2             1.0
8  COc1ccc(-c2nn(-c3ccc(NC(=O)Nc4cc(C(F)(F)F)cc(C(F)(F)F)c4)cc3)cc2-c2ccncc2)cc1Cl             0.0

###

system: BT-549 breast; assay: NCI-60 one-dose screen, 48 h (100 = growth as untreated, 0 = no growth, -100 = all killed); conditions: 10 µM unless noted
The panel holds about 83,000 compounds, 20% with a hit somewhere; the sample as a whole holds those more often.
Note to self: use y only for growth readings below 40%; a reading exactly at 40% still gets n.

> print(dat)
                                    compound  assigned.class
 1  CC(=O)CC/C=C(\C)[C@H](O)[C@H](C)C(=O)O[C@H]1C[C@H](C)C=C2C=C[C@@]3(C)O[C@@H](O)CC(=O)[C@]3(C)[C@H]21               y
 2  CCCCN(CCCC)c1ccc(C(=N)c2ccc(N(C)C)cc2)cc1               y
 3  COc1cc(NS(C)(=O)=O)ccc1Cc1c2ccccc2nc2ccccc12               y
 4  C#C[C@@]1(O)[C@@H](CO)O[C@@H](n2cc(Br)c3c(Cl)ccnc32)[C@@H]1O               y
 5  COCCNC(C(=O)c1ccccc1)c1ccccc1 (stereo unspecified)               n
 6  CC(C)(C)NC(C1=CC(C)(C)c2ccccc2C1=O)c1ccccc1 (stereo unspecified)               y
 7  C=C1C(=O)O[C@H]2[C@H]1CC/C(COC(=O)c1cc(OC)c(OC)c(OC)c1)=C\CC[C@@]1(C)O[C@@H]21               y
 8  O=[N+]([O-])c1cccc(C2c3ccccc3Oc3ccccc32)c1               n
 9  Cc1ccn2cc(Cc3cc(=O)oc4c3ccc3ccccc34)c(=O)nc2c1               n
10  O=C(Nc1ccc(F)cc1)Nc1ccc(Cl)c([N+](=O)[O-])c1               n
11  CC(C)CNCC(O)COc1ccc(C(C)(C)c2ccc(OCC(O)CNCC(C)C)cc2)cc1 (stereo unspecified)               n
12  CC(NCCC(c1ccccc1)c1ccccc1)c1ccccc1 (stereo unspecified)               n
13  COc1ccc(Cl)cc1NC(=O)c1cc2c([nH]1)-c1nc(NC(=O)C(C)C)sc1CC2               n
14                          NC(=S)NNC1CCCCC1               n
15           OCc1cnccc1NC12CC3CC(CC(C3)C1)C2               n
16           Cc1cc(Nc2ccc(Cl)c(Cl)c2)nc(N)n1               n
17  O=C(NCCNc1nccc(-c2c(-c3cccc(O)c3)nc3sccn23)n1)c1ccccc1O               n
18  CC(C)(C)C(=O)Nc1nc2c(s1)CCc1ccn(S(=O)(=O)c3ccccc3)c1-2               n
19  O=c1[nH]ccc2nc(N3CCC(O)CC3)nc(Nc3cccc(C(F)(F)F)c3)c12               y
20  Fc1ccc(Nc2ncnc3ccc(-c4cn[nH]c4)cc23)cc1Cl               n
21  COc1cc2nc(C(=O)N3CCCCC3)cc(Nc3ccccc3)c2cc1OC               n
22  Nc1nc2ccc(CNc3ccc(C(=O)NC(CC(=O)O)C(=O)O)cc3)cc2c(=O)[nH]1 (stereo unspecified)               n
23  CC(C)[C@@H]1NC(=O)[C@]2(C)CSC(=N2)c2ccnc(c2)CNC(=O)C[C@@H](/C=C/CCS)OC1=O               n
24      COc1ccc(-c2coc3c(CO)c(O)ccc3c2=O)cc1               y
25  Cc1ccc(/C=C2/C(=O)Nc3cc(Cl)c(-c4csc(N)n4)cc32)cc1               n
26  CCC1CN2C(=N1)c1ccccc1-c1cc(Cl)ccc12 (stereo unspecified)               n
27  O=C(COc1ccc(Cl)cc1)N1CCN(Cc2ccc3c(c2)OCO3)CC1               n
28  CS(=O)(=O)Nc1cccc(-c2ccc3ncnc(Nc4cncc(Cl)c4)c3c2)c1               y
29  O=C(O)c1ccc(-c2nn(-c3ccc(C(=O)O)cc3)cc2/C=N/Nc2c(F)c(F)cc(F)c2F)cc1               n
30        Cc1ccc[n+](CC(=O)c2cccc3ccccc23)c1               n
31  CC(=O)c1cc2c(N)c(C(=O)Nc3cccc(Cl)c3)sc2nc1C               n
32        O=c1c2ccccc2[nH]n1Cc1ccc2c(c1)OCO2               n
33  Cl[C@@H]1CCO[C@H](c2cc3ccccc3c3ccccc23)C1               n
34  COc1ccc(-c2[nH]c3ccccc3c2/C=C(\C#N)S(=O)(=O)c2ccccc2)cc1               n
35  COc1ccc2c(c1)C(=O)/C(=C/c1ccc(OCC(=O)c3ccc(Cl)cc3)cc1)O2               n
36  CCN(CC)CCNC(=O)c1c(C)[nH]c(/C=C2\C(=O)Nc3cc(NC(=O)NC(=O)c4ccc(OC)cc4F)ccc32)c1C               n
37  CCc1c(C)c2cc3nc(NCc4ccccc4)oc3c(C)c2oc1=O               y
38              CN(CCNCc1ccccn1)CCNCc1ccccn1               y
39  O=C(NCCNc1nccc(-c2c(-c3cccc(O)c3)nc3sccn23)n1)c1cccc(C(F)(F)F)c1               n
40     C/C(=N\N=C1/SCC(=O)N1c1ccccc1)c1ccco1               n

###

tested on: MDA-MB-435 melanoma; assay: NCI-60 one-dose screen, 48 h (100 = growth as untreated, 0 = no growth, -100 = all killed); conditions: 10 µM unless noted
Compounds without any hit were thinned out: in the full panel of roughly 83,000, 20% have a hit.
Reported growth by item:
MEASURE NAME: growth (%)

> print(dat)
                                    molecule  value.units  experimental.value
 1          COC(=O)/C=C/C(=O)c1cc(C)cc(C)c1O            %                 103
 2  CN1C(=O)C2(SCC(C(=O)NCC(=O)OC(C)(C)C)N2C(=O)C2CCCCC2)c2ccccc21 (centres undefined)            %                 104
 3  COc1cc2c(/C=C3/C(=O)Nc4ccc(O)cc43)c(Cl)n(Cc3cc(OC)c(OC)c(OC)c3)c2cc1C            %                2.91
 4  C=CCOc1ccc(/C(Cl)=N/N=C(\Cl)c2cc(OC)c(OC)c(OC)c2)cc1            %                80.6
 5             CCCCC(=O)Nc1nc2ccc(SCCC)cc2s1            %                4.42
 6  CC1(C)CC(=O)C2=C(C1)OC1=C(C(=O)CC(C)(C)C1)C2c1ccc(OCc2cn(-c3ccc(F)cc3F)nn2)cc1            %                92.4
 7  C/C(=N/O)c1ccc(NC(=O)Cn2nc(-c3ccc(Cl)cc3)nc2N)cc1            %                 109
 8  O=C(NCCNc1nccc(-c2c(-c3cccc(O)c3)nc3sccn23)n1)Nc1cccc(C(F)(F)F)c1            %               -3.01
 9  O=C(Nc1ccc(-n2cc(-c3ccncc3)c(-c3ccc(O)c(Cl)c3)n2)cc1)Nc1cc(C(F)(F)F)cc(C(F)(F)F)c1            %                54.6
10                           CC(=O)Cc1cccnc1            %                 110
11  CC(C)(CCN=C(N)Nc1ccccn1)c1ccc(C(F)(F)F)cc1            %                18.7
12  CNCCCOc1c(Br)cc(CCNC(=O)/C(Cc2cc(Br)c(OC)c(Br)c2)=N/O)cc1Br            %               -59.6
13  O=C1c2ccccc2C(=O)c2c(NCCN=Cc3c(O)ccc4ccccc34)cccc21            %                  96
14  NS(=O)(=O)c1ccc(CCN2C(=O)/C(=C\c3ccc(Cl)cc3)C=C2c2ccc(Oc3ccccc3)cc2)cc1            %                78.8
15  C=C1C(=O)O[C@H]2[C@H]1CC/C(CNC(=O)/C1=C/CC[C@@]3(C)O[C@H]3[C@H]3OC(=O)C(=C)[C@@H]3CC1)=C\CC[C@@]1(C)O[C@@H]21            %                96.4
16      CCOc1ccc(NC(=O)Nc2cc(C(C)C)ccc2C)cc1            %                  85
17  O=C(NOC1OC(CO)C(O)C(O)C1O)Nc1ccccc1 (centres undefined)            %                 102
18  Cc1ccc(Cn2cc(COc3ccc4c5ccnc(C)c5n(CCCc5ccccc5)c4c3)nn2)cc1            %                 106
19  C=CCn1c(SCC(=O)Nc2ccc(C(=O)/C=C/c3cc(OC)c(OC)c(OC)c3)cc2)nnc1-c1ccc(OC)cc1            %               -38.1

Cited source for all entries: PubChem BioAssay (NCI)
